Test system: SIMA (Neuroblastoma)
Experiment: combination Emax (second highest fraction inhibited in the dose matrix, 72 h); higher = more inhibition; extreme values may be limits of the assay
Listing of entries alongside the reported combination Emax.
READOUT LABEL: combination Emax

{"columns": ["MOLECULE", "VALUE OBSERVED"],
 "data": [
  ["COc1cccc(OCCCN)c1-c1cc(Nc2cnc(C#N)cn2)n[nH]1 [Prexasertib] + CN(C)CCCOc1ccc(-c2ccc3ncc4c(c3c2)n(C2CCOCC2)c(=O)n4C)cn1 [AZD0156] (first compound max 1 µM, 7x7, partner max 1 µM)", 1],
  ["CN(CCO)CC[C@H](CSc1ccccc1)Nc1ccc(S(=O)(=O)NC(=O)c2ccc(N3CCC([C@@H](O)c4ccccc4-c4ccc(Cl)cc4)CC3)cc2)cc1S(=O)(=O)C(F)(F)F [AZD4320] + CN(C)CCCOc1ccc(-c2ccc3ncc4c(c3c2)n(C2CCOCC2)c(=O)n4C)cn1 [AZD0156] (first compound max 1 µM, 7x7, partner max 1 µM)", 0.848],
  ["Cc1c2c(nn1C)CSCc1cc(n(C)n1)CSc1cc(c3ccccc3c1)OCCCc1c(C(=O)O)n(C)c3c-2c(Cl)ccc13 [AZD5991] + C[C@@H]1COCCN1C2=NC(=NC(=C2)C3(CC3)[S@](=N)(=O)C)C4=C5C=CNC5=NC=C4 [AZD6738] (first compound max 1 µM, 7x7, partner max 10 µM)", 0.98]
]}

Entry source: the supplement of paper PMC11061612
